assay: Muscle levels 24 hours after intramuscular injection; details: with aluminium hydroxide adjuvant; 24 hours after intramuscular injection (100 μg) with protein antigens; Balb/C mice

| Smi | muscle level of compound |
| --- | --- |
| Cc1cc(OCCOCCOCCC(F)(F)P(=O)(O)O)ccc1CCc1cnc2c(N)nc3cc(CCC(=O)O)ccc3c2c1 | readily detected |
| Cc1cc(OCCCC(F)(F)P(=O)(O)O)ccc1CCc1cnc2c(N)nc3cc(CCC(=O)O)ccc3c2c1 | readily detected |
| Cc1ccc2c(c1)nc(N)c1ncc(CCc3ccc(OCCOCCOCCC(F)(F)P(=O)(O)O)cc3C)cc12 | readily detected |
| Cc1cc(OCCOCCOCCP(=O)(O)O)ccc1CCc1cnc2c(N)nc3cc(CCC(=O)O)ccc3c2c1 | readily detected |
